Exercise: state measured Encapsulation Efficiency for each of the compounds provided.
# assay_name: Encapsulation efficiency of lipid nanoparticles, Quant-it Ribogreen RNA quantification assay
# Assay type: physicochemical
# measurement_context: LNP with mRNA
Reply with just the number (in %).

-- ask Entry CCCCCCCCC(CCCCCCCC)CNC(=O)CCOCC(CN(C)CCN(CCO)C1CCC1)OCCC(=O)NCC(CCCCCCCC)CCCCCCCC (stereo not shown) : reported Encapsulation Efficiency = ?
-- reply 94.7

-- ask Thanks! And CCCCCCCCCCCCOCC(CN(CCO)C1CCC1)OC(=O)CCCCCCCCCCC (stereo not shown) ?
-- reply 94.5

-- ask Another compound: CCCCC/C=C\C/C=C\CCCCCCCC(=O)OCC(CCCCN(CCO)C1CCCCC1)COC(=O)CC(CCCCCC)CCCCCCCC (stereo not shown)
-- reply 91.24

-- ask Repeat with CCCCCCCCCCCCCCCC(=O)OCC(CCCCN(CCO)C1CCCC1)COC(=O)CC(CCCCCC)CCCCCCCC (stereo not shown)
-- reply 94.14

-- ask Field entry: CCCCC/C=C\C/C=C\CCCCCCCC(=O)OCC(CCCCN(CCO)C1CCCCCC1)COC(=O)CC(CCCCCC)CCCCCCCC (stereo not shown)
-- reply 92.11

-- ask Also CCCCCCCCCCC(=O)OCC(CCCCN(CCO)C1CCCCC1)COC(=O)CC(CCCCCC)CCCCCCCC (stereo not shown) , if possible.
-- reply 92.17

-- ask And what about the compound CCCCCCCCC(CCCCCCCC)COC(=O)CCOCC(CN(C)CCN(CCO)C1CCCCCC1)OCCC(=O)OCC(CCCCCCCC)CCCCCCCC (stereo not shown) ?
-- reply 94.69

====

# assay_name: Apparent pKa of LNP formulations, TNS fluorescence assay
# Format: physicochemical
# measurement_context: LNP cationic lipid/DSPC/cholesterol/DMG-PEG 50/10/38.5/1.5 mol %, pH 3 to 9
Label YES for high-side Apparant Pka (at or above 6) and NO for low-side Apparant Pka (below it).

-- ask // inclusive: Apparant Pka at least 6? input: CCCCCCCCCCCCOCC(CN(CCCCCC(=O)OCC(CCCCCC)CCCCCCCC)CCN(CCO)C1CC1)OCCCCCC (stereo not shown) [Compound 22]
-- reply NO

-- ask Here is the next molecule: CCCCCCCCC(CCCCCC)CC(=O)OCC(CCCCN(CCN(CCO)CCCC)C1CCC1)COC(=O)CC(CCCCCC)CCCCCCCC (stereo not shown) [Compound 109]
-- reply YES

-- ask Param item: CCCCCCCCCCCCOCC(CN(C)CCO)OC(=O)CCCCCCCCCCC (stereo not shown) [Compound 41]
-- reply NO

-- ask Similarly, CCCCCCCCC(CCCCCCCC)COC(=O)CCOCC(CN(C)CCN(CCO)C1CCCC1)OCCC(=O)OCC(CCCCCCCC)CCCCCCCC (stereo not shown) [Compound 71] ?
-- reply YES

====

# assay_name: Lipid nanoparticle size and polydispersity by dynamic light scattering (Malvern Zetasizer Nano ZS)
# Type: physicochemical
# measurement_context: LNP of cationic lipid/DSPC/cholesterol/PEG-lipid 50:10:38.5:1.5 with mRNA
measurement_type: size (nm)
Please give a number only; it is taken to be in nm.

-- ask If you can, please state the reported size (nm) value of CCCCCCCCCCCCCCCC(=O)OCC(CCCCN(CCO)C1CCCCC1)COC(=O)CC(CCCCCC)CCCCCCCC (centres unmarked) [Compound 86] .
-- reply 73.58

-- ask Same again, this time with CCCCCCCCCCC(=O)OCC(CCCCN(CCO)C1CCCCCC1)COC(=O)CC(CCCCCC)CCCCCCCC (centres unmarked) [Compound 92]
-- reply 70.85

-- ask Likewise for CCCCCCCCC(CCCCCCCC)COC(=O)CCOCC(CN(C)CCN(CCO)C1CCCCC1)OCCC(=O)OCC(CCCCCCCC)CCCCCCCC (centres unmarked) [Compound 72] ?
-- reply 81.89

-- ask Consider next the molecule CCCCCCCCC(CCCCCCCC)COC(=O)CCOCC(CN(C)CCN(CCO)C1CCCCCCC1)OCCC(=O)OCC(CCCCCCCC)CCCCCCCC (centres unmarked) [Compound 74] in the same way.
-- reply 101.00

-- ask And for CCCCCCCCCOC(=O)CCOCC(CN(C)CCN(CCO)C1CCC1)OCCC(=O)OCCCCCCCCC (centres unmarked) [Compound 43] ?
-- reply 138.6

-- ask Note, next up: CCCCCCC(CCCCCC)COC(=O)CCCCCN(CCN1CCC(O)C1)CC(COC(=O)CCCCC)OC(=O)CCCCC (centres unmarked) [Compound 59]
-- reply 94.89

-- ask Then what about the molecule CCCCCCCCC(CCCCCC)CC(=O)OCC(CCCCN(CCN(CC)CCO)C1CCC1)COC(=O)CC(CCCCCC)CCCCCCCC (centres unmarked) [Compound 69] ?
-- reply 110.30

-- ask What do you get for CCCCCCCCC(CCCCCC)COC(=O)CCOCC(CN(CCCCCC)CCN(CCO)C1CCCCCC1)OCCC(=O)OCC(CCCCCC)CCCCCCCC (centres unmarked) [Compound 107] ?
-- reply 61.18

-- ask Try this molecule next: CCCCCCC(CCCCCC)COC(=O)CCCCCN(CCN1CCC(O)C1)CC(COC(=O)CCCCC)OC(=O)CCCCC (centres unmarked) [Compound 63]
-- reply 150.2

-- ask Again, but for CCCCCCCCC(CCCCCCCC)CNC(=O)CCOCC(CN(C)CCN(CCO)C1CCCC1)OCCC(=O)NCC(CCCCCCCC)CCCCCCCC (centres unmarked) [Compound 57]
-- reply 70.05

-- ask Next entry: CCCCCCCCC(CCCCCCCC)COC(=O)CCOCC(CN(C)CCN(CCO)C1CCC1)OCCC(=O)OCC(CCCCCCCC)CCCCCCCC (centres unmarked) [Compound 55]
-- reply 75.43

-- ask Then CCCCCCCCC(CCCCCCCC)CC(=O)OCC(CCCCN(CC)CCN(CCO)C1CCC1)COC(=O)CC(CCCCCCCC)CCCCCCCC [Compound 67] ?
-- reply 130.6

-- ask How about this molecule: CCCCCCCCCCCCCCOC(COCCCCCCCCCCCC)CN(CCCCCC(=O)OCCCCCCCCCC)CCN(CCO)C1CCC1 (centres unmarked) [Compound 47]
-- reply 82.89

-- ask Then what about the molecule CCCCCCCCCCCCOCC(CN(CCCCCC(=O)OCC(CCCCCC)CCCCCCCC)CCN(CCO)C1CC1)OCCCCCCCC (centres unmarked) [Compound 34] ?
-- reply 58.33

====

# assay_name: Apparent pKa of LNP formulations, TNS fluorescence assay
# Type: physicochemical
# measurement_context: LNP cationic lipid/DSPC/cholesterol/DMG-PEG 50/10/38.5/1.5 mol %, pH 3 to 9
For each of the compounds below, state its Apparant Pka.
Simply state the number, no unit and no words.

-- ask I have this compound here, CCCCCCCCCCCCOCC(CN(C)CCN(CCO)C1CCCCC1)OCCCCCC (stereo not shown) , and I need its recorded Apparant Pka.
-- reply 7.466

-- ask # repeat for CCCCC/C=C\C/C=C\CCCCCCCC(=O)OCC(CCCCN(CCO)C1CCCC1)COC(=O)CC(CCCCCC)CCCCCCCC (stereo not shown)
-- reply 7.024

-- ask Request: CCCCCCCCC(CCCCCCCC)CC(=O)OCC(CCCCN(CCN(C)CCO)C1CCC1)COC(=O)CC(CCCCCCCC)CCCCCCCC
-- reply 6.428

-- ask What about this compound? CCCCCCCCCCCCCCCC(=O)OCC(CCCCN(CCO)C1CCCCCCC1)COC(=O)CC(CCCCCC)CCCCCCCC (stereo not shown)
-- reply 6.309

-- ask Subsequent entry: CCCCCCCCCCCCOCC(CN(CCCCCC(=O)OCC(CCCCCC)CCCCCCCC)CCN1CCCCC1)OC(=O)CCCCC (stereo not shown)
-- reply 5.875

-- ask Cool, now CCCCCCCCC(CCCCCC)CC(=O)OCC(CCCCN(CCN(CCC)CCO)C1CCC1)COC(=O)CC(CCCCCC)CCCCCCCC (stereo not shown)
-- reply 6.063

-- ask Request: CCCCCCCCC(CCCCCC)CC(=O)OCC(CCCCN(CCN(CC)CCO)C1CCC1)COC(=O)CC(CCCCCC)CCCCCCCC (stereo not shown)
-- reply 6.789

====

# assay_name: Encapsulation efficiency of lipid nanoparticles, Quant-it Ribogreen RNA quantification assay
# Assay type: physicochemical
# measurement_context: LNP with mRNA
Hi there, I'd appreciate the recorded Encapsulation Efficiency for every entry that follows.
Report only the number, with the unit % understood.

-- ask GET /values?readout=Encapsulation Efficiency&item= CCCCCCCCC(CCCCCC)CC(=O)OCC(CCCCN(CC=C(C)C)CCO)COC(=O)CC(CCCCCC)CCCCCCCC (stereo not shown)
-- reply 89.92

-- ask Consider next the compound CCCCCCCCCCC(=O)OCC(CCCCN(CCO)C1CCCCCC1)COC(=O)CC(CCCCCC)CCCCCCCC (stereo not shown) in the same way.
-- reply 90.25

-- ask // repeat for CCCCCCCCCCCCOCC(CN(CCCCCC(=O)OCC(CCCCCC)CCCCCCCC)CCN(CCO)C1CCCCC1)OCCCCCCCC (stereo not shown) and report
-- reply 94.20

-- ask Would you kindly repeat that for CCCCCCCCC(CCCCCCCC)CC(=O)OCC(CCCCN(C)CCN(CCO)C1CCC1)COC(=O)CC(CCCCCCCC)CCCCCCCC ?
-- reply 96.6

-- ask Moving on to CCCCCCCCCCCCOCC(CN(CCCCCC(=O)OCCCCCCCCCC)CCN(CCO)C1CCC1)OCCCCCCCC (stereo not shown)
-- reply 91.7

-- ask Please do the same for CCCCC/C=C\C/C=C\CCCCCCCC(=O)OCC(CCCCN(CCO)C1CCC1)COC(=O)CC(CCCCCC)CCCCCCCC (stereo not shown) as well.
-- reply 92.56

-- ask Queued: CCCCCCCCCCCCOCC(CN(CCCCCC(=O)OCC(CCCCCC)CCCCCCCC)CCN(CCO)C1CCCCC1)OCCCCCC (stereo not shown)
-- reply 94.70

Every entry's value here was drawn from patent US11964052B2.
